Target: MbtA (Mycobacterium tuberculosis, UniProt P71716)
Sequence (P71716 whole entry): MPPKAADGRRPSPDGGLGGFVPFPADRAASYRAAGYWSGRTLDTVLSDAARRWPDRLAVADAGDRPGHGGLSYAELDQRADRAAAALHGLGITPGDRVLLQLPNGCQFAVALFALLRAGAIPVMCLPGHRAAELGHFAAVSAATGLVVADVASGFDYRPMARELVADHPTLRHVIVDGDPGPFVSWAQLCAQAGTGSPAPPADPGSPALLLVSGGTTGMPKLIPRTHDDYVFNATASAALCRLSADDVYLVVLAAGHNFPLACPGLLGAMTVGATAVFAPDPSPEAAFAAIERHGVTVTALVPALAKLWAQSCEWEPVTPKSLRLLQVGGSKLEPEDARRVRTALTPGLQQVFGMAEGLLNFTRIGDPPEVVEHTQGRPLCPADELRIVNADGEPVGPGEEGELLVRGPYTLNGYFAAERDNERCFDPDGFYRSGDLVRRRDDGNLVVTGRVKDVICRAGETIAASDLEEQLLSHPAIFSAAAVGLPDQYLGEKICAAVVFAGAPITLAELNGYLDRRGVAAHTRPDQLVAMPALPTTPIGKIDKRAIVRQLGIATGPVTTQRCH
Assay type: biochemical
Conditions: relative to parent compound 6
Recorded fold increase in potency / binding affinity (KI^app) relative to 6 values for a group of molecules are listed next.
measure: fold increase in potency / binding affinity (KI^app) relative to 6 (fold)

* CCN(CC)CC.Nc1nc(I)nc2c1ncn2[C@@H]1O[C@H](COS(=O)(=O)NC(=O)c2ccccc2O)[C@@H](O)[C@H]1O [Compound 23] | 2
* CCN(CC)CC.Nc1nc(C#Cc2ccccc2)nc2c1ncn2[C@@H]1O[C@H](COS(=O)(=O)NC(=O)c2ccccc2O)[C@@H](O)[C@H]1O [Compound 25] | 17
* CCN(CC)CC.O=C(NS(=O)(=O)OC[C@H]1O[C@@H](n2cnc3c(NC4CC4)ncnc32)[C@H](O)[C@@H]1O)c1ccccc1O [Compound 16] | 3.5
* CCN(CC)CC.Nc1nc(Nc2ccccc2)nc2c1ncn2[C@@H]1O[C@H](COS(=O)(=O)NC(=O)c2ccccc2O)[C@@H](O)[C@H]1O [Compound 24] | 7
